Examples of compounds with documented inhibition follow.
measurement.target: Pantothenate synthetase (Mycobacterium tuberculosis (strain ATCC 25618 / H37Rv))
assay.explanation: Coupled enzyme confirmation of inhibitors against recombinant Mtb PanC (AID 375);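 further: 0% = full reaction with vehicle and 100% = no enzyme background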
condition: coupled enzyme assay; at 10 µM, stronger effect = higher value
Please give a number only; it is taken to be in %.

| compound | unit.text | quantitative.result |
| --- | --- | --- |
| O=C(NCc1cccs1)C1CC(=O)N(c2ccccc2)C1 (configuration not stated) | % | 0 |
| CS(=O)(=O)NCCSCc1c(F)cccc1Cl | % | 3 |
| COC(=O)CCC(=O)Nc1cccc(Br)c1 | % | 0 |
| COc1ccccc1OCCCn1c(=O)oc2ccccc21 | % | 0 |
| CCN1c2nc3ccccn3c(=O)c2CC2(C(=O)N(C)C(=O)N(C)C2=O)C1C (configuration not stated) | % | 0 |
| N#CC1=C(SCC(=O)NC2CCCCC2)NC(=O)CC1c1ccco1 (configuration not stated) | % | 8 |
| CSc1ccc(Cn2nnc(C(=O)NCc3ccccc3)c2N)cc1 | % | 0 |
| CC(NC(=O)Nc1nccs1)(C(F)(F)F)C(F)(F)F | % | 5 |

Query block: // inhibition lookup, key: Cc1cc(C(=O)NCCN2CCCCC2C)n(-c2ccccc2)n1 (configuration not stated)
Result block: 0

Query block: Can you check `CC(=O)Nc1ccc(OC(=O)c2cccs2)cc1` next?
Result block: 0

Query block: One more compound: `Cn1c(-n2c(-c3ccco3)nc3ccccc3c2=O)nc2ccccc21`
Result block: 2

Query block: What would you report for `COc1ccccc1CNC(=O)C1CCN(S(=O)(=O)N2CCCCC2)CC1` ?
Result block: 0

Measured values drawn from PubChem BioAssay for this set.
